Some compounds, each annotated with its measured inhibition.
- Subject of test: Protein kinase C theta type (Homo sapiens)
- Conditions used: at 0.1 µM
Response body: numeric value in %, unit text excluded.

COc1ccc(-c2ccncc2)cc1C(N)=O : 2.73
CC1=C(C(=O)Nc2ccc3[nH]ncc3c2)C(c2ccc3ccccc3c2)CC(=O)N1 (stereo not drawn) : 1.49
Nc1ncnc2occ(-c3ccc(NC(=O)Nc4cc(C(F)(F)F)cc(C(F)(F)F)c4)cc3)c12 : 0.72

# query: inhibition | item `Nc1nc(-c2ccc3c(c2)C(=Cc2cc(Br)c(O)c(Br)c2)C(=O)N3)cs1` | system: Protein kinase C theta type (Homo sapiens);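 note: reported figure is the mean percent inhibition of PKC-theta, from the GSK PKIS screen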
-1.06

What would you report for `Fc1cccc(COc2ccc(Nc3ncnc4sc(-c5cccs5)cc34)cc2Cl)c1` ?
0.32

What would you report for `N#Cc1c(NC(=O)c2cccc3ccccc23)sc2c1CCCC2` ?
1.69

What would you report for `Cn1cc(C=C2C(=O)Nc3cccnc32)c2ccccc21` ?
-0.39

What would you report for COc1ccc2cc(-c3c(-c4ccncc4)nc(-c4ccc([S+](C)[O-])cc4)n3C)ccc2c1 (stereo not drawn) ?
1.01
